Provide the recorded IC50 for the entries that follow.
# TARGET_OR_TEST_SYSTEM: UniProtKB P25929
# Sequence (P25929 whole entry): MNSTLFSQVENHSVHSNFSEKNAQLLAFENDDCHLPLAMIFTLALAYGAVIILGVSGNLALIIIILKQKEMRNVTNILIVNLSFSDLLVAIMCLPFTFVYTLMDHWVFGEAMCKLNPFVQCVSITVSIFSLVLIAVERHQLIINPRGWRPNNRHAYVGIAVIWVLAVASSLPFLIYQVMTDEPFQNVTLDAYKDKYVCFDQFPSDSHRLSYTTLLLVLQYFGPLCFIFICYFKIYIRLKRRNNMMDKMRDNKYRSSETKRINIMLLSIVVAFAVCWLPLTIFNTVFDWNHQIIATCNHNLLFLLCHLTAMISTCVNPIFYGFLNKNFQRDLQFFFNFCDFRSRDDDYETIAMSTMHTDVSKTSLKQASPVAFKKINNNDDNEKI
# PROTOCOL_DETAILS: Displacement of [125I]-PYY from human NPYY1 receptor overexpressed in CHO cell membrane after 120 mins by scintillation counting
# Assay type: cell membranes
One number for each entry, in nM.

Worked set:
SMILES_REPRESENTATION	TARGET_OR_TEST_SYSTEM	MEASUREMENT_UNIT	IC50
Cc1nc(SCc2cc(N3CCOCC3)cc(NCc3cccc(OCCF)n3)n2)oc1C	UniProtKB P25929	nM	19
Cc1nc(SCc2cc(N3CCOCC3)cc(NCc3ccc(F)nc3)n2)oc1C	UniProtKB P25929	nM	21
COCc1cccc(CNc2cc(N3CCOCC3)cc(CSc3nc(C)c(C)o3)n2)n1	UniProtKB P25929	nM	4.3

Count: 6. Required value per item: IC50.
1. Cc1cccc(CNc2cc(N3CCSCC3)cc(CSc3nc(C)c(C)o3)n2)n1
2. Cc1nc(SCc2cc(N3CCOCC3)cc(NCc3cccc(F)n3)n2)oc1C
3. Cc1cccc(CNc2cc(N3CCOCC3)cc(CSc3nc(C)c(C)s3)n2)n1
4. Cc1cccc(CNc2cc(N3CCS(=O)(=O)CC3)cc(CSc3nc(C)c(C)o3)n2)n1
5. Cc1nc(SCc2cc(N3CCOCC3)cc(NCc3cccnc3F)n2)oc1C
6. Cc1nc(SCc2cc(N3CCOCC3)cc(NCc3cccc(CF)n3)n2)oc1C

[out]
0.16
1.5
0.27
1.7
7.7
1.8

Count: 7. Required value per item: IC50.
1. Cc1nc(SCc2cc(N3CCS(=O)(=O)CC3)cc(NCc3cccc(F)n3)n2)oc1C
2. Cc1cccc(CNc2cc(N3CCOCC3)cc(CSc3nc(C)c(CF)s3)n2)n1
3. Cc1nc(SCc2cc(N3CCOCC3)cc(NCc3cccc(COCCF)n3)n2)oc1C
4. Cc1cccc(CNc2cc(N3CCOCC3)cc(CSc3nc(C)c(C)o3)n2)n1
5. Cc1cccc(CNc2cc(N3CCOCC3)cc(CSc3nc4c(o3)CCCC4)n2)n1
6. Cc1nc(SCc2cc(N3CCOCC3)cc(NCc3ccnc(F)c3)n2)oc1C
7. CCc1oc(SCc2cc(N3CCOCC3)cc(NCc3cccc(C)n3)n2)nc1C

[out]
1: 8; 2: 0.56; 3: 10; 4: 0.69; 5: 0.46; 6: 5.2; 7: 0.39

----------
# PROTOCOL_DETAILS: Octanol-water distribution coefficient log Dat pH 7.4 by water-plug aspiration/injection method combined with HPLC-mass spectrometry
ASSAY_METRIC: logD
One number for each entry.

Worked set:
SMILES_REPRESENTATION	logD
Cc1cccc(CNc2cc(N3CCOCC3)cc(CSc3nc4c(o3)CCCC4)n2)n1	3.5
CCc1oc(SCc2cc(N3CCOCC3)cc(NCc3cccc(C)n3)n2)nc1C	3.1
COCc1cccc(CNc2cc(N3CCOCC3)cc(CSc3nc(C)c(C)o3)n2)n1	2.8

Count: 5. Required value per item: logD.
1. Cc1nc(SCc2cc(N3CCOCC3)cc(NCc3cccc(COCCF)n3)n2)oc1C
2. Cc1cccc(CNc2cc(N3CCOCC3)cc(CSc3nc(C)c(C)o3)n2)n1
3. Cc1nc(SCc2cc(N3CCSCC3)cc(NCc3cccc(F)n3)n2)oc1C
4. Cc1nc(SCc2cc(N3CCOCC3)cc(NCc3cccnc3F)n2)oc1C
5. Cc1nc(SCc2cc(N3CCOCC3)cc(NCc3ccnc(F)c3)n2)oc1C

[out]
1: 2.6; 2: 2.8; 3: 3.5; 4: 3; 5: 3.1

Reference source: ChEMBL document CHEMBL1155324
